meta.source: ChEMBL document CHEMBL4477222

# assayComment: Metabolic stability in human hepatocytes assessed as compound remaining at 10 uM after 2 hrs
# Assay type: ADME, cell-based, Hepatocyte
# conditionContext: read-out: Stability
recordedEndpoint: remaining at 2 h, 10 µM (%)

inputSmiles: CC(C)(C)C#Cc1cc(N(CC(=O)N2CCOCC2)C(=O)[C@H]2CC[C@H](C)CC2)c(C(=O)O)s1
recordedEndpoint: remaining at 2 h, 10 µM
uom: %
number: 77

====

# assayComment: Clearance in monkey at 1 mg/kg, iv through bolus administration
# Type: ADME, organism-based, Macaca mulatta
# conditionContext: rhesus monkey, in vivo

inputSmiles: CC(C)(C)C#Cc1cc(N(CC(=O)N2CCOCC2)C(=O)[C@H]2CC[C@H](C)CC2)c(C(=O)O)s1
clearance / mL/min/kg: 9.9

====

# targetOfAssay: RNA-directed RNA polymerase (Hepacivirus hominis, UniProt O39930, L419M)
# assayComment: Inhibition of HCV genotype 1a NS5B L419M mutant
recordedEndpoint: EC50 (nM)

compound: CC(C)(C)C#Cc1cc(N(CC(=O)N2CCOCC2)C(=O)[C@H]2CC[C@H](C)CC2)c(C(=O)O)s1
number: 240

compound: CC(C)(C)C#Cc1cc(N(C(=O)[C@H]2CC[C@H](C)CC2)[C@H]2CC[C@H](O)CC2)c(C(=O)O)s1 [LOMIBUVIR]
number: 320

====

# assayComment: Protein binding in rat liver at 1 uM
# Format: ADME, tissue-based
# conditionContext: read-out: PB (converted)
recordedEndpoint: fraction unbound at 1 µM

inputSmiles: CC(C)(C)C#Cc1cc(N(CC(=O)N2CCOCC2)C(=O)[C@H]2CC[C@H](C)CC2)c(C(=O)O)s1
recordedEndpoint: fraction unbound at 1 µM
number: 0.162

====

# assayComment: Half life in dog at 1 mg/kg, iv through bolus administration
# Type: ADME, organism-based, Canis lupus familiaris
# conditionContext: in vivo
recordedEndpoint: half-life (h)

inputSmiles: CC(C)(C)C#Cc1cc(N(CC(=O)N2CCOCC2)C(=O)[C@H]2CC[C@H](C)CC2)c(C(=O)O)s1
recordedEndpoint: half-life
uom: h
number: 9.8

====

# assayComment: Cmax in Sprague-Dawley rat at 3 mg/kg, po
# Type: ADME, organism-based
# Parameters: dose 3 mg/kg, route oral
# conditionContext: in vivo
recordedEndpoint: Cmax

inputSmiles: CC(C)(C)C#Cc1cc(N(CC(=O)N2CCOCC2)C(=O)[C@H]2CC[C@H](C)CC2)c(C(=O)O)s1
recordedEndpoint: Cmax
result: 1730 ng/mL

====

# assayComment: Half life in Fischer 344 rat at 1 mg/kg, iv through bolus administration
# Assay type: ADME, organism-based
# conditionContext: in vivo

inputSmiles: CC(C)(C)C#Cc1cc(N(CC(=O)N2CCOCC2)C(=O)[C@H]2CC[C@H](C)CC2)c(C(=O)O)s1
half-life [min]: 100

====

# assayComment: Metabolic stability in rat hepatocytes assessed as compound remaining at 10 uM after 2 hrs
# Format: ADME, cell-based, Hepatocyte
# conditionContext: read-out: Stability

inputSmiles: CC(C)(C)C#Cc1cc(N(CC(=O)N2CCOCC2)C(=O)[C@H]2CC[C@H](C)CC2)c(C(=O)O)s1
remaining at 2 h, 10 µM (%): 100

====

# assayComment: Volume of distribution at steady state in Sprague-Dawley rat at 1 mg/kg, iv through bolus administration
# Format: ADME, organism-based
# conditionContext: in vivo, read-out: Vdss
recordedEndpoint: Vd (L/kg)

inputSmiles: CC(C)(C)C#Cc1cc(N(CC(=O)N2CCOCC2)C(=O)[C@H]2CC[C@H](C)CC2)c(C(=O)O)s1
recordedEndpoint: Vd
uom: L/kg
number: 1.55

====

# assayComment: Half life in Fischer 344 rat at 3 mg/kg
# Assay type: ADME, organism-based
# conditionContext: in vivo

inputSmiles: CC(C)(C)C#Cc1cc(N(CC(=O)N2CCOCC2)C(=O)[C@H]2CC[C@H](C)CC2)c(C(=O)O)s1
half-life: 2.1 h

====

# assayComment: Protein binding in monkey liver at 1 uM
# Format: ADME, tissue-based, Macaca mulatta
# conditionContext: rhesus monkey, read-out: PB (converted)

inputSmiles: CC(C)(C)C#Cc1cc(N(CC(=O)N2CCOCC2)C(=O)[C@H]2CC[C@H](C)CC2)c(C(=O)O)s1
fraction unbound at 1 µM: 0.093

====

Quick reference for pEC50 among some compounds
# targetOfAssay: RNA-directed RNA polymerase (Hepacivirus hominis, UniProt O39930, M423V)
# assayComment: Inhibition of HCV genotype 1a NS5B M423V mutant
pEC50: −log10 of the molar value.

compound: CC(C)(C)C#Cc1cc(N(C(=O)[C@H]2CC[C@H](C)CC2)[C@H]2CC[C@H](O)CC2)c(C(=O)O)s1 [LOMIBUVIR]
targetOfAssay: RNA-directed RNA polymerase (Hepacivirus hominis, UniProt O39930, M423V)
pEC50: 7.19

compound: CC(C)(C)C#Cc1cc(N(CC(=O)N2CCOCC2)C(=O)[C@H]2CC[C@H](C)CC2)c(C(=O)O)s1
targetOfAssay: RNA-directed RNA polymerase (Hepacivirus hominis, UniProt O39930, M423V)
pEC50: 6.92

====

# assayComment: Permeability from basolateral to apical side in human Caco2 cells
# Format: ADME, cell-based
# conditionContext: Caco-2, read-out: permeability

inputSmiles: CC(C)(C)C#Cc1cc(N(CC(=O)N2CCOCC2)C(=O)[C@H]2CC[C@H](C)CC2)c(C(=O)O)s1
Papp B→A (×10⁻⁶ cm/s): 9.8

====

# assayComment: Metabolic stability in monkey hepatocytes assessed as compound remaining at 10 uM after 2 hrs
# Format: ADME, cell-based, Macaca mulatta, Hepatocyte
# conditionContext: rhesus monkey, read-out: Stability
recordedEndpoint: remaining at 2 h, 10 µM (%)

inputSmiles: CC(C)(C)C#Cc1cc(N(CC(=O)N2CCOCC2)C(=O)[C@H]2CC[C@H](C)CC2)c(C(=O)O)s1
number: 30

====

# assayComment: Metabolic stability in monkey liver microsomal S9 fraction assessed as compound remaining at 1 uM after 2 hrs in presence of NADPH
# Format: ADME, subcellular, Macaca mulatta
# conditionContext: rhesus monkey, read-out: Stability

inputSmiles: CC(C)(C)C#Cc1cc(N(CC(=O)N2CCOCC2)C(=O)[C@H]2CC[C@H](C)CC2)c(C(=O)O)s1
remaining at 2 h, 1 µM [%]: 19

====

# assayComment: Solubility of the compound in FeSSIF at pH 5.2
# Type: physicochemical
recordedEndpoint: solubility (µg/mL)

inputSmiles: CC(C)(C)C#Cc1cc(N(CC(=O)N2CCOCC2)C(=O)[C@H]2CC[C@H](C)CC2)c(C(=O)O)s1
recordedEndpoint: solubility
number: 800

====

# assayComment: Permeability from apical to basolateral side in human Caco2 cells
# Type: ADME, cell-based
# conditionContext: Caco-2, read-out: permeability

inputSmiles: CC(C)(C)C#Cc1cc(N(CC(=O)N2CCOCC2)C(=O)[C@H]2CC[C@H](C)CC2)c(C(=O)O)s1
Papp A→B [×10⁻⁶ cm/s]: 0.7

====

# targetOfAssay: Cytochrome P450 2E1 (Homo sapiens, UniProt P05181)
# Sequence (P05181 whole entry): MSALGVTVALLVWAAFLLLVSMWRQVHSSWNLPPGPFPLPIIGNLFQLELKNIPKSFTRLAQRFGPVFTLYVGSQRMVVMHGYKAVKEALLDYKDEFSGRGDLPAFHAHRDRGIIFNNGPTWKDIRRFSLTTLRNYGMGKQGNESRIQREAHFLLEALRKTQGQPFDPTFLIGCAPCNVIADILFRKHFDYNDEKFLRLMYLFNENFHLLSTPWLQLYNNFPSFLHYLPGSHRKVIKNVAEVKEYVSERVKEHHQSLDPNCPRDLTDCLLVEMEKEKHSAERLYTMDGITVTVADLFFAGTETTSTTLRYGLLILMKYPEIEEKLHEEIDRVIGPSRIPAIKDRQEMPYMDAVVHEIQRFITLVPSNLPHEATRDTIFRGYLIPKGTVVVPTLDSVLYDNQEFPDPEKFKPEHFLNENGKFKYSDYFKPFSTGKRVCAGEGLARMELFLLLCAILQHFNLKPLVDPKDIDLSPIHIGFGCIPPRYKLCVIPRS
pIC50: −log10 of the molar value.

inputSmiles: CC(C)(C)C#Cc1cc(N(CC(=O)N2CCOCC2)C(=O)[C@H]2CC[C@H](C)CC2)c(C(=O)O)s1
targetOfAssay: Cytochrome P450 2E1 (Homo sapiens, UniProt P05181)
pIC50: 4.85

====

# assayComment: Clearance in dog at 1 mg/kg, iv through bolus administration
# Format: ADME, organism-based, Canis lupus familiaris
# conditionContext: in vivo

inputSmiles: CC(C)(C)C#Cc1cc(N(CC(=O)N2CCOCC2)C(=O)[C@H]2CC[C@H](C)CC2)c(C(=O)O)s1
uom: L/h/kg
clearance: 0.606
